Molecular target: EPHB1 (UniProt P54762)
Sequence (P54762 whole entry, looked up): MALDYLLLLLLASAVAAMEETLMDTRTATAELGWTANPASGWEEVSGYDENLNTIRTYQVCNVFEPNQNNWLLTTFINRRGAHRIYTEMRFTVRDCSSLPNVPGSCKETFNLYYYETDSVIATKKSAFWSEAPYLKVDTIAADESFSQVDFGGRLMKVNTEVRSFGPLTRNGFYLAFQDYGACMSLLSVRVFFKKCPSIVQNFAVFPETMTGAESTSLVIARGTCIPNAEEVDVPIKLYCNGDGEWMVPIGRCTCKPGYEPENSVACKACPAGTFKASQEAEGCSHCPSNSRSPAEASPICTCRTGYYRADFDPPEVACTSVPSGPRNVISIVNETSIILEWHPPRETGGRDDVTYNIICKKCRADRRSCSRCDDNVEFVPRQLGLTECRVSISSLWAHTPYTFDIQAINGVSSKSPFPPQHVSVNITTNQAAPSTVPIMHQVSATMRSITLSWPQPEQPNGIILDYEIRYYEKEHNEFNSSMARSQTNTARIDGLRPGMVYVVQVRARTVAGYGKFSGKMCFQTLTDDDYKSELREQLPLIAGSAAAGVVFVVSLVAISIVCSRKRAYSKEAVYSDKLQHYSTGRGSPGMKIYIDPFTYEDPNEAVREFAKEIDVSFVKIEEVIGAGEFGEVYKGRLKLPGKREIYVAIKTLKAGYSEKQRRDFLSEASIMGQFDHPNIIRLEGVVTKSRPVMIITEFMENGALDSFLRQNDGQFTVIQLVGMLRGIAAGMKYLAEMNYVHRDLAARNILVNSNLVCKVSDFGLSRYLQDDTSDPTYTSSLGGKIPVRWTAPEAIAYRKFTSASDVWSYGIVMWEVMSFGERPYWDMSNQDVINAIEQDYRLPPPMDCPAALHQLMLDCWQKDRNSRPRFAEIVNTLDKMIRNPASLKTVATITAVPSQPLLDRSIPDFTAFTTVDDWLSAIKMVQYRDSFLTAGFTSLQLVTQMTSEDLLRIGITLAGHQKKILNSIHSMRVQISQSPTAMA
Experiment: phosphorylation enrichment, bacterial display (enrichment ratio); higher = better substrate or ligand; peptides without Tyr show the background
Property: phosphorylation enrichment; scope: individual sequences
Number only, no unit.

Sample records with phosphorylation enrichment:
FTRNFYVQAVL [CYBA_Y88_R90Q_YF] | 0.81
AKRKNYAPVTM [CFAP47_Y557_A561T] | 0.365
AFDNLYYWDQD [ERBB2_Y1221] | 5.88

In: // fetch phosphorylation enrichment for QGLMPYGQPRP [SRRT_Y798] ; system: EPHB1 (UniProt P54762)
Out: 0.568

In: // fetch phosphorylation enrichment for RLDPVYFVAPA [LAMC2_Y250] ; system: EPHB1 (UniProt P54762)
Out: 5.28

In: // fetch phosphorylation enrichment for KNRDVYSSDYF [USP24_Y2134] ; system: EPHB1 (UniProt P54762)
Out: 3.39

In: // fetch phosphorylation enrichment for RFMELYDLNRD [BBS2_Y648_YF] ; system: EPHB1 (UniProt P54762)
Out: 0.61

In: // fetch phosphorylation enrichment for LADKPYTFEDY [FXN_Y118] ; system: EPHB1 (UniProt P54762)
Out: 0.736

In: // fetch phosphorylation enrichment for DSRRDYVSQFE [APOA1_Y53_G50R] ; system: EPHB1 (UniProt P54762)
Out: 0.456

In: // fetch phosphorylation enrichment for DLTQDSEEWKR [ORC6_Y232_Y232S] ; system: EPHB1 (UniProt P54762)
Out: 0.616

In: // fetch phosphorylation enrichment for KMGNIYRTEYG [MRPL3_Y265] ; system: EPHB1 (UniProt P54762)
Out: 0.488

In: // fetch phosphorylation enrichment for QNTGVYFDLFG [PTPN11_Y62_D61V_YF] ; system: EPHB1 (UniProt P54762)
Out: 2.93

In: // fetch phosphorylation enrichment for KLIETCFSKNY [PLP1_Y50_Y50C] ; system: EPHB1 (UniProt P54762)
Out: 0.576

---

Molecular target: Grb2 SH2 (UniProt P62993)
Sequence (P62993 whole entry, looked up): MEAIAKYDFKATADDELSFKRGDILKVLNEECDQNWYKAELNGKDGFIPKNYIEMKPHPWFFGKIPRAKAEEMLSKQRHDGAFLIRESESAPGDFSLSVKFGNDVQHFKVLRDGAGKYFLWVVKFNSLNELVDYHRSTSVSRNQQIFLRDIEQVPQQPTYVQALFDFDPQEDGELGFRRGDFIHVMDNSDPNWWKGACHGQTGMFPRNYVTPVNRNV
Assay: SH2 binding enrichment of the phosphorylated peptide, bacterial display (enrichment ratio); higher = better substrate or ligand; peptides without Tyr show the background
PROPERTY_MEASURED: SH2 binding enrichment

In: Please indicate SH2 binding enrichment recorded for GQKTLYSFFSP [UNG_Y8]
Out: 1.04

---

Biological target: c-Src SH2
Test: SH2 binding enrichment of the phosphorylated peptide, bacterial display (enrichment ratio); higher = better substrate or ligand; peptides without Tyr show the background
PROPERTY_MEASURED: SH2 binding enrichment
Number only, no unit.

IENKLYGMSDP [RET_Y1062] | 0.533
ILGRYYERGSI [PAX5_Y73_T75R] | 0.84
SVVVPYEPHEV [TP53_Y220_P223H] | 0.569
ENAGFYFRISA | 0.669
SENFTYIWWLN [PSG4_Y271_K267E_YF] | 0.439
LEQQKYTVTVD [IKBKB_Y199] | 0.567

In: Please indicate SH2 binding enrichment recorded for VDSTEYEVASQ [SLC7A7_Y7]
Out: 0.545

In: Please indicate SH2 binding enrichment recorded for GTATAYLCGVK [ALPL_Y117]
Out: 0.432

In: Please indicate SH2 binding enrichment recorded for YRNKPYISWPS [CDC42BPB_Y1638_S1633Y]
Out: 1.29

---

Target: Grb2 SH2 (UniProt P62993)
Experiment: SH2 binding enrichment of the phosphorylated peptide, bacterial display (enrichment ratio); higher = better substrate or ligand; peptides without Tyr show the background
Property: SH2 binding enrichment; scope: individual sequences
Number only, no unit.

In: // fetch SH2 binding enrichment for DFLEKYFKFGS [NNMT_Y24_YF] ; system: Grb2 SH2 (UniProt P62993)
Out: 0.764

In: // fetch SH2 binding enrichment for VPLATYMQIYK [RPL21_Y30_R32Q] ; system: Grb2 SH2 (UniProt P62993)
Out: 0.909

In: // fetch SH2 binding enrichment for LNCIFYKDQTG [RS1_Y166_W163C_YF] ; system: Grb2 SH2 (UniProt P62993)
Out: 0.75

In: // fetch SH2 binding enrichment for IRRSSYEDSSL [HNF4A_Y144_T139I] ; system: Grb2 SH2 (UniProt P62993)
Out: 0.749

In: // fetch SH2 binding enrichment for NVPILYTASQA [CTNNA1_Y222] ; system: Grb2 SH2 (UniProt P62993)
Out: 0.762

---

Target: Hck (UniProt P08631)
Sequence (P08631 whole entry, looked up): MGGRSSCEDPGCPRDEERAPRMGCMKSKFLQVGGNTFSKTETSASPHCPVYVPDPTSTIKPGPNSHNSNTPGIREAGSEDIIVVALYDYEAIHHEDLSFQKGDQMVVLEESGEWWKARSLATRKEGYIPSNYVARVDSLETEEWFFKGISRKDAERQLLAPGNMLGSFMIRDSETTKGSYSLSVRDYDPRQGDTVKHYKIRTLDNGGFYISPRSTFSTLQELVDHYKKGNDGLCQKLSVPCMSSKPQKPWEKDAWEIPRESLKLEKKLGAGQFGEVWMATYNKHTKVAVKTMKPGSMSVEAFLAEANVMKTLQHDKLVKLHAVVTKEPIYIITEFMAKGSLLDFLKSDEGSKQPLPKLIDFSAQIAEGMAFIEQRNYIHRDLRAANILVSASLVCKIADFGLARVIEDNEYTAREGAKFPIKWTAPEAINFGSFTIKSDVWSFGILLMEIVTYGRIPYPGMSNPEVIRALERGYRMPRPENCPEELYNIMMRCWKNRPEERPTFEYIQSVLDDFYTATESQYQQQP
Assay: phosphorylation enrichment, bacterial display (enrichment ratio); higher = better substrate or ligand; peptides without Tyr show the background
PROPERTY_MEASURED: phosphorylation enrichment
Number only, no unit.

IFHLSYLHNCE [PDE6B_Y227_YF] | 0.512
HLDRSYSFSFS [PEAR1_Y890_R885H_YF] | 0.726
SSVKPYRVFCD [FGB_Y266_YF] | 0.432
PVQAAYQQVVA [HBB_Y131_K133Q] | 0.659

In: // fetch phosphorylation enrichment for WLFFRYLPIGC [ATP2A2_Y836_A838P] ; system: Hck (UniProt P08631)
Out: 0.477

In: // fetch phosphorylation enrichment for KSIQLYDTPYE [SHB_Y297_G293S] ; system: Hck (UniProt P08631)
Out: 1.76

In: // fetch phosphorylation enrichment for QNTGNYFDLFG [PTPN11_Y62_D61N_YF] ; system: Hck (UniProt P08631)
Out: 0.49

---

Property: phosphorylation enrichment; scope: individual sequences
Molecular target: FGFR3 (UniProt P22607)
Sequence (P22607 whole entry, looked up): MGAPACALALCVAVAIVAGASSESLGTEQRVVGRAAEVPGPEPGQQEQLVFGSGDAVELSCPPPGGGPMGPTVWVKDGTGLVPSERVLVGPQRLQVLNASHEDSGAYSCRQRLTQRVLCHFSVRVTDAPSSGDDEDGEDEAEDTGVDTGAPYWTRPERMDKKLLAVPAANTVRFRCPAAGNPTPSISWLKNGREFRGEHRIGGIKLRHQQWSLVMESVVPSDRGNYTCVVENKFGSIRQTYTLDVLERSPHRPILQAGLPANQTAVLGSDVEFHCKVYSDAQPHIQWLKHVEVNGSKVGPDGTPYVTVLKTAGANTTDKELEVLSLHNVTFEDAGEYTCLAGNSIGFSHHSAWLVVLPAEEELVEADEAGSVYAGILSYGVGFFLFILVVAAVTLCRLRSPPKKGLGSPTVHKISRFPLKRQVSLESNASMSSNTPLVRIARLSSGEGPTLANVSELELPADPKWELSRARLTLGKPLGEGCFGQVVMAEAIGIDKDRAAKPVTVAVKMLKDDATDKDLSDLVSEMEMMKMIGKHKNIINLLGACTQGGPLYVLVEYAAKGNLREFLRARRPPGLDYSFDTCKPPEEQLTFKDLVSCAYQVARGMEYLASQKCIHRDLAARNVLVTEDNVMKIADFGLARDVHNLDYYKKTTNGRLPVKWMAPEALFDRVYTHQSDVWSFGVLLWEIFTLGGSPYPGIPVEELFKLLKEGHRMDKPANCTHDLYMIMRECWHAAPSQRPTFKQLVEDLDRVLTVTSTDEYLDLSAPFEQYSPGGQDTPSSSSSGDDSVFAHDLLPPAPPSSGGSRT
Assay: phosphorylation enrichment, bacterial display (enrichment ratio); higher = better substrate or ligand; peptides without Tyr show the background
Number only, no unit.

Sample records with phosphorylation enrichment:
HLWRIYFDITD [MMP27_Y307_YF] | 1.19
CEHRGCLYLAI [TEK_Y897_Y897C] | 0.685
ADEEEYEIIAA [FEStide_E_2014] | 1.08

In: Please indicate phosphorylation enrichment recorded for QDRDLYPCPGT [RLF_Y671]
Out: 0.878

In: Please indicate phosphorylation enrichment recorded for LFLASYCIGGG [UBD_Y161_C160S]
Out: 1.04

In: Please indicate phosphorylation enrichment recorded for NTPNTYLRVNV [ADD2_Y440]
Out: 0.598

In: Please indicate phosphorylation enrichment recorded for HRFAAYFQQGD [GPI_Y351]
Out: 0.897

In: Please indicate phosphorylation enrichment recorded for ACLSLYGGFVE [MVD_Y164_R161L]
Out: 1.31

---

Target: Grb2 SH2 (UniProt P62993)
Assay: SH2 binding enrichment of the phosphorylated peptide, bacterial display (enrichment ratio); higher = better substrate or ligand; peptides without Tyr show the background
PROPERTY_MEASURED: SH2 binding enrichment
Number only, no unit.

SVVVPYEPHEV [TP53_Y220_P223H] | 0.726
EADRKYEEVAH [TPM3_Y163_R168H] | 1.01
LENSTYQFIHV [CRB1_Y760_R764H_YF] | 0.94
RIVEIYTRRLQ [GCH1_Y175_S176T] | 0.756
RAMPVYKKAEH [TP63_Y231] | 1.29

In: Please indicate SH2 binding enrichment recorded for EWQQTYTYDSG [JUP_Y20]
Out: 0.813

In: Please indicate SH2 binding enrichment recorded for LIFTNYEVGKD [GSTP1_Y112_A114V_YF]
Out: 0.887

---

Property: phosphorylation enrichment; scope: individual sequences
Target: Fes (UniProt P07332)
Sequence (P07332 whole entry, looked up): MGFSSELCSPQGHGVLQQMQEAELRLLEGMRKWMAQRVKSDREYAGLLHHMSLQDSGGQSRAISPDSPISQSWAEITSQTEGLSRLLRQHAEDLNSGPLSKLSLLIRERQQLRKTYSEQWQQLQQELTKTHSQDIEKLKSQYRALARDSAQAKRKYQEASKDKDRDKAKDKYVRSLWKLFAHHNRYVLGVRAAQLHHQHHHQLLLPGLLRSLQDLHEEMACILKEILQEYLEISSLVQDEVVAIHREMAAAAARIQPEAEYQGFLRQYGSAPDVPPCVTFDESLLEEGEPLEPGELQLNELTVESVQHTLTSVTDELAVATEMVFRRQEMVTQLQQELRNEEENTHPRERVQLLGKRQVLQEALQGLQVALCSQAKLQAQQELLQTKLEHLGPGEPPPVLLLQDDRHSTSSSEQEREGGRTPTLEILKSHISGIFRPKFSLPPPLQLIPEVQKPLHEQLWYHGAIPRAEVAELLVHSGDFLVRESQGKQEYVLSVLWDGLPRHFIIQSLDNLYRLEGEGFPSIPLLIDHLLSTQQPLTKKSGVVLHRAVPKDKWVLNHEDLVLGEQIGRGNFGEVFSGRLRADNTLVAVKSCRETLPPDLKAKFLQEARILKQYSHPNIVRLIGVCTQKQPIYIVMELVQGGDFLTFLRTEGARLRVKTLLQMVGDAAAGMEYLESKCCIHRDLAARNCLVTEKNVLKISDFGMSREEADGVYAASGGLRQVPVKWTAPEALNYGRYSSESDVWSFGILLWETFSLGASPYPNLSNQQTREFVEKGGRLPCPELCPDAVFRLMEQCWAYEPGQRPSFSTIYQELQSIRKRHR
Test: phosphorylation enrichment, bacterial display (enrichment ratio); higher = better substrate or ligand; peptides without Tyr show the background
Number only, no unit.

Sample records with phosphorylation enrichment:
PFSNSYENSLI [EPOR_Y489_P488S_YF] | 1.21
NIRKKYYRAIL [CHD7_Y1217_Q1214R] | 0.547
KNSFKYFMSDD [ATRX_Y203_C200S_YF] | 1.02
VGEGPYLISDL [ABCC12_Y7] | 1.01
SGTYQYIIAKF [FOXL2_Y83_I80T] | 1.51

In: // fetch phosphorylation enrichment for QCTSHYPEHVC [SART3_Y541_D540H] ; system: Fes (UniProt P07332)
Out: 0.991

In: // fetch phosphorylation enrichment for HRGYLYLAIEY [TEK_Y899] ; system: Fes (UniProt P07332)
Out: 1.22

In: // fetch phosphorylation enrichment for NPQKPYFIRLF [WAS_Y83_S82P_YF] ; system: Fes (UniProt P07332)
Out: 1

In: // fetch phosphorylation enrichment for FSAPNCCFRCG [PPP2CA_Y265_Y265C_YF] ; system: Fes (UniProt P07332)
Out: 0.974

In: // fetch phosphorylation enrichment for LTVVIYVLIGR [EPHA3_Y561] ; system: Fes (UniProt P07332)
Out: 2.13

In: // fetch phosphorylation enrichment for HEKRAYICAHP [ACAD9_Y611_L606H] ; system: Fes (UniProt P07332)
Out: 0.77

In: // fetch phosphorylation enrichment for RGEKQYLATPL [ALOX12_Y295_A298T] ; system: Fes (UniProt P07332)
Out: 1.01

In: // fetch phosphorylation enrichment for APQFTYTQGGQ [FLNA_Y1763_A1764T_YF] ; system: Fes (UniProt P07332)
Out: 0.681

In: // fetch phosphorylation enrichment for FMRGMYFRMTD [PLA2G6_Y541_K545T_YF] ; system: Fes (UniProt P07332)
Out: 1.2

In: // fetch phosphorylation enrichment for GHEFIYVDPMQ [PDGFRA_Y574_YF] ; system: Fes (UniProt P07332)
Out: 0.986

In: // fetch phosphorylation enrichment for NKKHHYRELPV [ERN2_Y860] ; system: Fes (UniProt P07332)
Out: 1.97

In: // fetch phosphorylation enrichment for SWSTSYSGYRC [NKAPL_Y91_Y96C] ; system: Fes (UniProt P07332)
Out: 0.993
